Test system: PC12 cells
measurement notes: Measurements of cGMP in rat PC12 cell line (intracellular cGMP formation, enzyme immunoassay)
Assay type: cell-based
study conditions: 45 min exposure, 0.1 to 25 μM, in the presence of IBMX (100 μM) and YC-1 (20 μM)
endpoint name: Emax (% of vehicle), cGMP formation in PC12 cells

{"columns": ["compound", "value"],
 "data": [
  ["CC(C)(C)NCC(COc1nsnc1N1CCOCC1)OC(=O)c1ccc(CO[N+](=O)[O-])cc1.O=C(O)/C=C\\C(=O)O (stereo not shown)", "796 % of vehicle"],
  ["CC(C)(C)N(C[C@H](O)COc1nsnc1N1CCOCC1)C(=O)c1ccc(CO[N+](=O)[O-])cc1", "866 % of vehicle"],
  ["CC(C)(C)N(CC(COc1nsnc1N1CCOCC1)OC(=O)c1ccc(CO[N+](=O)[O-])cc1)C(=O)c1ccc(CO[N+](=O)[O-])cc1 (stereo not shown)", "480 % of vehicle"]
]}
